Molecular target: T1, human tissue factor pathway inhibitor (TFPI) (human, UniProt P10646 29-304, limits assumed)
T1 construct: bought; also called hTFPI; human TFPI
T1 sequence (looked up): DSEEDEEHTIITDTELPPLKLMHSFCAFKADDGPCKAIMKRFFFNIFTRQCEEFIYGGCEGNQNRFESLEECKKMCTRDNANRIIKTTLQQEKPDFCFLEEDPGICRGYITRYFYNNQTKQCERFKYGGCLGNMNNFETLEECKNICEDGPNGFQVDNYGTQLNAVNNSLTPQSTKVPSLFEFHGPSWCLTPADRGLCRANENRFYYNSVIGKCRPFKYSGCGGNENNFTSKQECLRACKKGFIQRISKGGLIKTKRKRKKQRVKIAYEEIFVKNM
Assay: SPR, TFPI immobilized
EXPERIMENTAL READOUT: kon (M⁻¹ s⁻¹)
Note: unit M⁻¹ s⁻¹ is implicit; provide only the numeric part.

Answered cases to consult:
BINDER	ENDPOINT UNIT	kon
2A8 LC_D91K (Fab, V domains shown, also called 2A8-15) VH: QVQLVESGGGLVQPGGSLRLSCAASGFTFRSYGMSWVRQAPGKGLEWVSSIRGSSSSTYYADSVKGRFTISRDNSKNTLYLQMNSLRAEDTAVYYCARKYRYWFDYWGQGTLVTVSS VL: DIELTQPPSVSVAPGQTARISCSGDNLRNYYAHWYQQKPGQAPVVVIYYDNNRPSGIPERFSGSNSGNTATLTISGTQAEDEADYYCQSWKDGVPVFGGGTKLTVLG	M⁻¹ s⁻¹	4.33e+06
2A8 LC_D91W (Fab, V domains shown, also called 2A8-17) VH: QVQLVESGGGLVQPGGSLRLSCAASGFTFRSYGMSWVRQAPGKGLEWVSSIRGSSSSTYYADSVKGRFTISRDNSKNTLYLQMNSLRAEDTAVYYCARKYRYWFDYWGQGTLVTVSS VL: DIELTQPPSVSVAPGQTARISCSGDNLRNYYAHWYQQKPGQAPVVVIYYDNNRPSGIPERFSGSNSGNTATLTISGTQAEDEADYYCQSWWDGVPVFGGGTKLTVLG	M⁻¹ s⁻¹	3.86e+06
2A8 HC_K99L (Fab, V domains shown, also called 2A8-9) VH: QVQLVESGGGLVQPGGSLRLSCAASGFTFRSYGMSWVRQAPGKGLEWVSSIRGSSSSTYYADSVKGRFTISRDNSKNTLYLQMNSLRAEDTAVYYCARLYRYWFDYWGQGTLVTVSS VL: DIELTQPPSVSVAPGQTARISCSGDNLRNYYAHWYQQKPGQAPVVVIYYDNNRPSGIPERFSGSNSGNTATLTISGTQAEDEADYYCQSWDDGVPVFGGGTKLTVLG	M⁻¹ s⁻¹	2.6e+06
2A8 LC_A32N (Fab, V domains shown, also called 2A8-11) VH: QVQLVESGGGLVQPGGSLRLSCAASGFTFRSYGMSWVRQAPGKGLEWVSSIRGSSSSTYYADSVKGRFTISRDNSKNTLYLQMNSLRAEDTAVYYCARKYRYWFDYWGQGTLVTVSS VL: DIELTQPPSVSVAPGQTARISCSGDNLRNYYNHWYQQKPGQAPVVVIYYDNNRPSGIPERFSGSNSGNTATLTISGTQAEDEADYYCQSWDDGVPVFGGGTKLTVLG	M⁻¹ s⁻¹	2.7e+06

get_value(item= 2A8 HC_G33P (Fab, V domains shown, also called 2A8-1) VH: QVQLVESGGGLVQPGGSLRLSCAASGFTFRSYPMSWVRQAPGKGLEWVSSIRGSSSSTYYADSVKGRFTISRDNSKNTLYLQMNSLRAEDTAVYYCARKYRYWFDYWGQGTLVTVSS VL: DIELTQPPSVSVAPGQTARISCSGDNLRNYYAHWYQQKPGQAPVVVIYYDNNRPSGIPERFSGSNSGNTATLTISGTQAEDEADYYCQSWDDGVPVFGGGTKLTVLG , readout=kon) returns 2.71e+06
